Molecular target: hSCN3A sodium channels (Homo sapiens)
Construct: expressed in transfected cells
Assay: hSCN3A electrophysiology, whole-cell patch-clamp or PatchXpress 7000, estimated IC-50 (Table B)
Type: cell-based
Settings: estimated IC-50; hSCN3A cells, whole-cell patch-clamp or PatchXpress 7000; read-out: SCN3A EIC-50
pIC50: −log10 of the molar value.
# pIC50 >= 6 gives fulfilled, anything below gives not fulfilled

Compound String | Target Or Test System | Category Label
O=C(NCc1ccc(C(F)(F)F)cc1)c1ccc(S(=O)(=O)Nc2ccon2)cc1 | hSCN3A sodium channels (Homo sapiens) | not fulfilled
O=C(NCc1ccc(Cl)cc1Cl)c1ccc(S(=O)(=O)Nc2nccs2)cc1 | hSCN3A sodium channels (Homo sapiens) | fulfilled
CC1(c2ccc(Cl)cc2)CCN(C(=O)c2ccc(S(=O)(=O)Nc3nccs3)cc2)CC1 | hSCN3A sodium channels (Homo sapiens) | fulfilled
O=C(NCc1ccc(Cl)nc1)c1ccc(S(=O)(=O)Nc2nccs2)cc1 | hSCN3A sodium channels (Homo sapiens) | not fulfilled
O=C(NCc1ccc(OC(F)(F)F)c(F)c1)c1ccc(S(=O)(=O)Nc2nccs2)cc1F | hSCN3A sodium channels (Homo sapiens) | fulfilled

Answer whether pIC50 of O=C(NCc1ccc(F)c(C(F)(F)F)c1)c1ccc(S(=O)(=O)Nc2ncc(Cl)s2)cc1F is greater than or equal to 6.
fulfilled

###

Molecular target: hSCN3A sodium channels (Homo sapiens, UniProt Q9NY46)
Construct: expressed in transfected cells
Sequence (Q9NY46 whole entry): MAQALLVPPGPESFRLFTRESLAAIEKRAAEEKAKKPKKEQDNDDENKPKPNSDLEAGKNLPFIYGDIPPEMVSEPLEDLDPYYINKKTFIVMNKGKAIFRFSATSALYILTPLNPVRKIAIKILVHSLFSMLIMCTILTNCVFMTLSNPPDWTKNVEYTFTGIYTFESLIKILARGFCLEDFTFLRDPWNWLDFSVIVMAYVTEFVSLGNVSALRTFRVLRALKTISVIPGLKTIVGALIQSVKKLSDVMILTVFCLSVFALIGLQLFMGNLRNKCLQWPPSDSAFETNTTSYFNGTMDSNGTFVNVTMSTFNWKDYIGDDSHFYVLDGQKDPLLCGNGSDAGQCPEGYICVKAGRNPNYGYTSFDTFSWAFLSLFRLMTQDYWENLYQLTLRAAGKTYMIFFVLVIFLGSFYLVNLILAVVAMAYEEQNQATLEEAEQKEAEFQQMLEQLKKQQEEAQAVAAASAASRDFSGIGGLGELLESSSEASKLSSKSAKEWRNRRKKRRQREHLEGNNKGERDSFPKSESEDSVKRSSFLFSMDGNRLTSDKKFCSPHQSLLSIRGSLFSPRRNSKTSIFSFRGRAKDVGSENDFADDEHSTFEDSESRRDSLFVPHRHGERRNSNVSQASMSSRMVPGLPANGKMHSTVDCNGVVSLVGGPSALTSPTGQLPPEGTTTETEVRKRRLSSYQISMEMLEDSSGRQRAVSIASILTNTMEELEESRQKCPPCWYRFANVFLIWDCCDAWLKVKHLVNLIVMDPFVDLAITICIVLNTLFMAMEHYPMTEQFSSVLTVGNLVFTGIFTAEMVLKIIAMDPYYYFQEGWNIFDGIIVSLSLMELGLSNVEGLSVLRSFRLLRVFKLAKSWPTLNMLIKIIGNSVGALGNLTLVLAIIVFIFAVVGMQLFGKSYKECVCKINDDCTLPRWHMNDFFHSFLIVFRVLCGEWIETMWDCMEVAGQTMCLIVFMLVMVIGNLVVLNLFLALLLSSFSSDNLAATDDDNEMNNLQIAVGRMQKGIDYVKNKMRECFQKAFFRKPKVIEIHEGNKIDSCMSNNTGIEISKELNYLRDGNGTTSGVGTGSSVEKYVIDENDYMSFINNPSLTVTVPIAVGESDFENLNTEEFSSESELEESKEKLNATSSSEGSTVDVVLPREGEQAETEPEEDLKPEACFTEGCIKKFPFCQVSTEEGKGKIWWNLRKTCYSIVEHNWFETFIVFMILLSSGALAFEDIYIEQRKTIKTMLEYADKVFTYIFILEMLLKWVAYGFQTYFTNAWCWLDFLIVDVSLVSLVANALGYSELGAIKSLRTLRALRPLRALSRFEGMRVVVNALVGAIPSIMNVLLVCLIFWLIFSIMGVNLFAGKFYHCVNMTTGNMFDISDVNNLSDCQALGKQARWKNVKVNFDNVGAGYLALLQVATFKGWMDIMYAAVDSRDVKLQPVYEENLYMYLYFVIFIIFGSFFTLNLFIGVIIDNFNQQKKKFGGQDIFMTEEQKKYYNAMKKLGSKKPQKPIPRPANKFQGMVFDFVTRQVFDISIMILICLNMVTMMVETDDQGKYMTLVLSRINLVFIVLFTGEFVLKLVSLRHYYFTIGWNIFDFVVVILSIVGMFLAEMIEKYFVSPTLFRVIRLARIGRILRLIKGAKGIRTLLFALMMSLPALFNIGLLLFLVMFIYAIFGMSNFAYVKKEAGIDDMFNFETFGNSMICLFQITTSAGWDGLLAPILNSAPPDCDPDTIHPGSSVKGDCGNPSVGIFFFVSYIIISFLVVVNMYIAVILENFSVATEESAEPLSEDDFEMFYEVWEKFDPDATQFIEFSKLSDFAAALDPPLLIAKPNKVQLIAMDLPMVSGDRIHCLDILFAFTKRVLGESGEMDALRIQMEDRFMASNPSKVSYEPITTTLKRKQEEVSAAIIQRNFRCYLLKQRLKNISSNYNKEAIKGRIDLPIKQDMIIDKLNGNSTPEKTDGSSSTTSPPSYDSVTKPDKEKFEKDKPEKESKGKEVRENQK
Assay: hSCN3A electrophysiology, Ionworks Quattro automated platform (Table C)
Format: cell-based
Settings: 10 μM compound, read-out: SCN3A % INHIB HTS IWQ 10 μM
# inhibition at 10 µM >= 10% gives 1.0, anything below gives 0.0

Example entries begin here.
Molecule | Target Or Test System | Category Label
O=C(c1ccc(S(=O)(=O)Nc2nccs2)cc1)N(Cc1ccccc1)[C@@H](CO)c1ccccc1 | hSCN3A sodium channels (Homo sapiens, UniProt Q9NY46) | 0.0
O=C(c1ccc(S(=O)(=O)Nc2nccs2)cc1)N(Cc1ccccc1)[C@@H]1CCCC[C@H]1O | hSCN3A sodium channels (Homo sapiens, UniProt Q9NY46) | 0.0
O=C(c1ccc(S(=O)(=O)Nc2nccs2)cc1)N1CCOC(CN2Cc3ccccc3C2=O)C1 (centres unmarked) | hSCN3A sodium channels (Homo sapiens, UniProt Q9NY46) | 1.0
O=C(N[C@@H]1COC[C@@H]1c1ccc(F)cc1)c1ccc(S(=O)(=O)Nc2nccs2)cc1 | hSCN3A sodium channels (Homo sapiens, UniProt Q9NY46) | 1.0
O=C(c1ccc(S(=O)(=O)Nc2nccs2)cc1)N1CCCCCC1c1ccccc1 (centres unmarked) | hSCN3A sodium channels (Homo sapiens, UniProt Q9NY46) | 1.0
O=C(NC1(Cc2cccc(Cl)c2)CC1)c1ccc(S(=O)(=O)Nc2nccs2)cc1 | hSCN3A sodium channels (Homo sapiens, UniProt Q9NY46) | 1.0
CC(C)(NC(=O)c1ccc(S(=O)(=O)Nc2nccs2)cc1)c1cccc(Cl)c1 | hSCN3A sodium channels (Homo sapiens, UniProt Q9NY46) | 1.0

Answer whether inhibition at 10 µM of CN(CC1Cc2ccccc2O1)C(=O)c1ccc(S(=O)(=O)Nc2nccs2)cc1 (centres unmarked) is greater than or equal to 10%.
1.0

###

Target: hSCN3A sodium channels (Homo sapiens)
Construct: expressed in transfected cells
Test: hSCN3A electrophysiology, Ionworks Quattro automated platform (Table C)
Type: cell-based
Conditions: read-out: SCN3A IWQ IC-50
Catalogue of molecules with associated pIC50
API: returns pIC50 as number; meaning -log10 of concentration in mol/L.

Reference set, count: 4
Molecule | pIC50
O=C(c1ccc(S(=O)(=O)Nc2nccs2)cc1)N1CCC(CCc2ccccc2)C1 (centres unmarked) | 4.69
O=C(c1ccc(S(=O)(=O)Nc2nccs2)cc1)N1CCCC(COc2cc(F)cc(F)c2)C1 (centres unmarked) | 4.58
COc1ccc(CC2CCCN(C(=O)c3ccc(S(=O)(=O)Nc4nccs4)cc3)C2)cc1 (centres unmarked) | 4.56
O=C(c1ccc(S(=O)(=O)Nc2nccs2)cc1)N1CCSCC1c1ccc(F)cc1 (centres unmarked) | 4.48

Can you share its pIC50? I mean this molecule: O=C(c1ccc(S(=O)(=O)Nc2nccs2)cc1)N1CCCC1c1ccccc1Cl (centres unmarked)
5.08
